These measurements were taken from paper PMC9352680.

STUDY_SYSTEM: T1, PUF4 RNA-binding domain (Saccharomyces cerevisiae, UniProt P25339 537-888)
T1 sequence: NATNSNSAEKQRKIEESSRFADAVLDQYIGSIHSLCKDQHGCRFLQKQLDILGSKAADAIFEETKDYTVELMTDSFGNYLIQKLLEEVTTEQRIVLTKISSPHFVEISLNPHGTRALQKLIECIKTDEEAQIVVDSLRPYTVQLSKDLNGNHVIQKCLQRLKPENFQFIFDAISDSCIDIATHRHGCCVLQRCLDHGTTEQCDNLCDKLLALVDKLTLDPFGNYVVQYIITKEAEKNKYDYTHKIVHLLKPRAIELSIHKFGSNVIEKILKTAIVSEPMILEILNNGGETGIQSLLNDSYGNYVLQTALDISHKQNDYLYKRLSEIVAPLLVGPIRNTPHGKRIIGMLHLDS
TEST_SUMMARY: Mg; RNA-MaP; 20 mM Na-HEPES pH 7.4, 30 mM KOAc, 0.75 mM MgCl2, 0.1% Tween-20, 5% glycerol, 0.1 mg/mL BSA, 2 mM DTT; 25 C; 0.0125-409.6 nM protein
CONDITIONS: tags: N-His6-TEV cleaved; C-SNAP kept, Cy3B-labelled; label: tethered on chip by stalled RNA polymerase
ENDPOINT_NAME: pKd
To interpret pKd, take it as minus log10 of a concentration measured in moles per litre.

In: What value of measured pKd is listed for UCUCUUACUGUAUUAUUAAUUCUCUU (ssRNA) [Id_ii_S1_P5E.2_K5.1_C5.2_[C-2A]_[T-1C]_H5.1_A5.1_F5.1_T5.2_[T11A]_[A12T]] ?
Out: 7.90

In: I would be grateful if you could share the reported pKd for Id_ii_S2_P3E.2_K3.1_C3.2_[C-2T]_H3.1_A3.1_F3.1_T3.2_[T9A] (ssRNA) RNA: UUUGAUUAAUAUGAUAUCGUUCUUUCUUUUGUAUAUAAAUUCUUUCUCGAUAUCAUAUUAAUCUUU .
Out: 8.16

In: Any idea what its pKd is? The binder is Id_ii_S2_P4E.2_K4.1_C4.2_[C-2T]_[T-1A]_H4.1_A4.1_F4.1_T4.2 (ssRNA) RNA: UUUGAUUAAUAUGAUAUCGUUCUUUCUUAUGUAUAUUAGUUUCUUUCUCGAUAUCAUAUUAAUCUUU
Out: 9.15

In: Returns the measured pKd for the input binder. Input: Id_ii_S2_P4E.3_K4.2_C4.2_[C-2T]_[T-1C]_H4.2_A4.1_F4.1_T4.2_[G10T]_[T11C] (ssRNA) RNA: UUUGAUUAAUAUGAUAUCGUUCUUUCUUCUAUAUAUUAUCUUCUUUCUCGAUAUCAUAUUAAUCUUU
Out: 8.16

In: Requested read-out: pKd. Entry: ACAAACUUACACUAUAUUACAAAC (ssRNA) [Id_ii_S3_P3E.4_K3.3_C3.2_[C-2T]_H3.3_A3.1_F3.1_T3.2_[A10T]]
Out: 6.02
